src = patent US20250212891A1

- System: Alternaria solani
- experiment notes: Microtiterplate test against early blight (Alteso)
- Format: cell-based
- test parameters: 0.063 ppm
Positions of bridges follow the written chain, without caps; N, C: chain ends. Residues, ends and D or L forms follow the SMILES beside them. ξ: configuration not given here. *: point of attachment. Pentadecanoyl(3ξ-OH,15-Gua) = N=C(N)NCCCCCCCCCCCCC(O)CC(=O)*
This listing pairs compounds with measured Observed efficacy.
# output: numeric value plus its unit

Worked set:
- compound: "CCC(C)C1NC(=O)C(NC(=O)CC(O)CCCCCCCCCCCCNC(=N)N)C(C)OC(=O)C(C)NC(=O)C(CC(N)=O)NC(=O)C(C(C)O)NC(=O)C(Cc2ccc(O)cc2)NC1=O (stereo not shown) [Compound 1A, fusaricidin 1A] ({Pentadecanoyl(3ξ-OH,15-Gua)}-TIYTNA; ester 1-C; configuration not given here)"
  result: "7%"
- compound: "CCC(C)C1NC(=O)C(NC(=O)CC(O)CCCCCCCCCCCCNC(=N)N)C(C)OC(=O)C(C)NC(=O)C(CCC(N)=O)NC(=O)C(C(C)O)NC(=O)C(Cc2ccc(O)cc2)NC1=O (stereo not shown) [Compound 1B, fusaricidin 1B] ({Pentadecanoyl(3ξ-OH,15-Gua)}-TIYTQA; ester 1-C; configuration not given here)"
  result: "13%"
- compound: "CC1(C)CCC(Cc2ccc(Cl)cc2)C1(O)Cn1cncn1 (stereo not shown) [Metconazol, metconazole, reference compound]"
  result: "45%"

Would you kindly look at the next entry?
(Q) Supply reported Observed efficacy belonging to this compound: CNC(=O)/C(=N/OC)c1ccccc1COc1cc(C)ccc1C
(A) 36%

###

- Tested on: Botrytis cinerea
- experiment notes: Microtiterplate test against grey mold (Botrci)
- Assay type: cell-based
- test parameters: Botrytis cinerea, 168 h; 0.25 ppm; read-out: Observed efficacy
Positions of bridges follow the written chain, without caps; N, C: chain ends. Residues, ends and D or L forms follow the SMILES beside them. ξ: configuration not given here. *: point of attachment. Pentadecanoyl(3ξ-OH,15-Gua) = N=C(N)NCCCCCCCCCCCCC(O)CC(=O)*
readout kind: inhibition of growth at 0.25 ppm (%)
Report only the number, with the unit % understood.

- molecule: "COC(=O)N(OC)c1ccccc1COc1ccn(-c2ccc(Cl)cc2)n1 [Pyraclostrobin, pyraclostrobin, reference compound]"
  inhibition of growth at 0.25 ppm, %: 10
- molecule: "CC1(C)CCC(=Cc2ccc(Cl)cc2)C1(O)Cn1cncn1 (stereo not shown) [Triticonazol, triticonazole, reference compound]"
  inhibition of growth at 0.25 ppm, %: 19
- molecule: "COCC(=O)N(c1c(C)cccc1C)C(C)C(=O)OC (stereo not shown) [Metalaxyl]"
  inhibition of growth at 0.25 ppm, %: 0

// next item, inhibition of growth at 0.25 ppm requested
(Q) State, in one line, measured inhibition of growth at 0.25 ppm of CCC(C)C1NC(=O)C(NC(=O)CC(O)CCCCCCCCCCCCNC(=N)N)C(C)OC(=O)C(C)NC(=O)C(CCC(N)=O)NC(=O)C(C(C)O)NC(=O)C(Cc2ccc(O)cc2)NC1=O (stereo not shown) [Compound 1B, fusaricidin 1B] ({Pentadecanoyl(3ξ-OH,15-Gua)}-TIYTQA; ester 1-C; configuration not given here)
(A) 4
